Measurement Description: Passive artificial membrane permeability (PAMPA)
Assay Context: PAMPA; replicate R1; TIC of top well sample relative to sample at theoretical equilibrium
Given measured Permeability% R1, output yes (1) if it is greater than or equal to 2% and no (0) if not.

Take a look at these entries with their results.
O=C1NCCSCc2cccc(n2)CSC[C@H](NC(=O)c2ccc(Cl)s2)C(=O)N[C@@H](CO)C(=O)NCc2cccc1c2 [compound 27] ... yes (1)
O=C1C[C@H]2CCCN2C(=O)[C@H](Cc2ccccn2)NC(=O)[C@@H](NC(=O)c2ccc(Cl)s2)CSCCS(=O)(=O)CCSCCN1 [compound 12] ... no (0)
O=C(N[C@H]1CSCCS(=O)(=O)CCSCCNC(=O)C2(CC2)CNC(=O)[C@H](Cc2ccccc2)NC1=O)c1ccc(Cl)s1 [compound 16] ... yes (1)
O=C1CCSCc2cccc(n2)CSCCNC(=O)[C@H](CO)NC(=O)[C@@H](NC(=O)c2ccc(Cl)s2)CN1 [compound 17] ... no (0)
C[C@@H]1NC(=O)[C@@H](NC(=O)c2ccc(Cl)s2)CSCc2cccc(n2)CSCCNC(=O)[C@H]2CCCN(C2)C1=O [compound 30] ... yes (1)

Please turn your attention to the following entry.
Reported Permeability% R1 reaches at least 2% for O=C1NCCSCc2cccc(n2)CSC[C@H](NC(=O)c2ccc(Cl)s2)C(=O)N[C@@H](CO)C(=O)NCc2ccc1cc2 [compound 25] ?
no (0)
